- assay-system: T1, rhNav1.7α + β1-β2-β3 (rhesus monkey)
- T1 construct: also called rhNav1.7-beta1-beta2-beta3; rhNav1.7-β1-β2-β3
- assay-overview: binding FACS, CHO FlpIn

binder	Bmax / %
F010302343 (VHH) VHH: EVQLVESGGGVVQPGGSLRLSCAASSRQFIRDVFTGWYRQAPGKQRELVARIYESGNTQYADSAKGRFTISRDNAKKTVYLQMNSLRPEDTALYYCLFSGTISTGREYRSGDYWGQGTLVTVSS	84
F010302347 (VHH) VHH: EVQLVESGGGVVQPGGSLRLSCAASHRAFIRDVFTGWYRQAPGKQRELVARIYEGGNTQYADSAKGRFTISRDNAKKTVYLQMNSLRPEDTALYYCLFSGTISTGREYRSGDYWGQGTLVTVSS	100
